Experiment: Human HepG2 cell viability assay in 384 well format
Type: toxicity, cell-based
Design: dose 125 nL, time 70.5 hour; concentration not given beside the values
Conditions: HepG2 cells, read-out: Inhibition
Listed compounds paired with reported cytotoxicity at 70.5 h

Worked cases, answers included:
[[record]]
compound = "CCN1CCN(C(=O)CCn2cccc2)CC1"
result = "-12.8%"

[[record]]
compound = "CCn1c(C)cc(C(=O)Nc2ccccc2CN(C)C(C)=O)c1C"
result = "-9.11%"

[[record]]
compound = "COC[C@@H]1CCC[C@@]12CN(C(=O)N1CCCC1)CCO2"
result = "-12.3%"

[[record]]
compound = "Cc1noc(C)c1-c1nc(N(C)CCN(C)C)ncc1-c1cnccn1"
result = "-6.02%"


input: Indicate the recorded cytotoxicity at 70.5 h value for this compound: `Cc1cc(C)c(-n2cc(CCO)cn2)cc1C`
output: 22.1%

input: Please report cytotoxicity at 70.5 h for the following compound: `CCOC1CCN(C(=O)NCc2cccc(-n3cccn3)c2)CC1`
output: -5.08%

input: Provide measured cytotoxicity at 70.5 h value, entry: `N#Cc1cccc(N2CCC(CO)(CCCc3ccccc3)CC2)n1`
output: -4.41%

input: Give reported cytotoxicity at 70.5 h value for `Cc1nccnc1N1CCC(Cc2ccccc2Cl)(C(=O)O)CC1`
output: -11.4%

---

Experiment: Human HepG2 cell viability assay in 384 well format
Assay type: toxicity, cell-based
Parameters: dose 125 nL, time 70.5 hour; concentration not given beside the values
Settings: HepG2 cells, read-out: Inhibition
measurement_label: cytotoxicity at 70.5 h

See these solved cases before continuing.
[[record]]
compound = "Cc1cnc(C(NC(=O)NCC2(CO)CC2)C2CC2)s1 (configuration not stated)"
measurement_label = "cytotoxicity at 70.5 h"
result = "2.13%"

[[record]]
compound = "Cc1cccc(CN2CC[C@@H]3[C@@H]2CCN3C(=O)c2cnoc2C)n1"
measurement_label = "cytotoxicity at 70.5 h"
result = "0.0209%"

[[record]]
compound = "COC(=O)c1cccc(S(=O)(=O)Nc2ncc(C)s2)c1"
measurement_label = "cytotoxicity at 70.5 h"
result = "0.827%"


input: Identify measured cytotoxicity at 70.5 h associated with `CCSc1ncc(CN2CC[C@@](O)(COC)C(C)(C)C2)cn1`
output: -18.2%

input: Report cytotoxicity at 70.5 h, nothing else, for this compound: `CCSCCNC(=O)c1ccc(S(=O)(=O)N2C[C@@H]3C[C@H]2CN3)cc1`
output: -4.95%

input: Report measured cytotoxicity at 70.5 h; entry is c1ccc(-c2cc(CN3CCCC(Cn4cncn4)C3)on2)cc1 (configuration not stated)
output: -1.24%

---

Experiment: Human HepG2 cell viability assay in 384 well format
Type: toxicity, cell-based
Set-up: dose 125 nL, time 70.5 hour; concentration not given beside the values
Details: HepG2 cells, read-out: Inhibition
Overview of recorded cytotoxicity at 70.5 h for various compounds
Give just the numeric value; % need not be written.

[[record]]
compound = "Cn1cnnc1CN1CCC2(CCC(=O)N(Cc3ccccn3)C2)CC1"
numeric_value = -6.09

[[record]]
compound = "O=C(NC1CCC1)[C@H]1C[C@@H]2CN(CC3CC3)C[C@H]1O2"
numeric_value = -0.535

[[record]]
compound = "Cc1cc(C)nc(N2CCCC(C)(c3[nH]ncc3C(=O)N(C)C)C2)n1 (centres undefined)"
numeric_value = -4.44

[[record]]
compound = "CCCc1cc(=O)[nH]c2nnc(SCC(=O)NC(C)(C)C)n12"
numeric_value = -8.6

[[record]]
compound = "Cc1nc(-c2ccc(C(=O)O)cc2)cc(C2CCCN(C(C)C)C2)n1 (centres undefined)"
numeric_value = 9.4

[[record]]
compound = "Cc1cc(NC(=O)Nc2ccc3c(ccn3CCN(C)C)c2)n(C)n1"
numeric_value = 2.58

[[record]]
compound = "Cc1ccc(CC(=O)N2CCCC2Cn2nc(C)cc2C)cn1 (centres undefined)"
numeric_value = -11.5

[[record]]
compound = "Cc1nn(CC(C)C)c(N(C)C)c1CNCCCNS(C)(=O)=O"
numeric_value = 31.6

[[record]]
compound = "O=C1CCCN1CCc1noc(-c2ccsc2)n1"
numeric_value = -7.91

[[record]]
compound = "COc1cc(C)nc(N2CCN(C(=O)c3cc(C)no3)CC2)n1"
numeric_value = 26.3


input: Provide measured cytotoxicity at 70.5 h value, entry: `COCCCNC(=O)C1(NC(=O)c2ccc3[nH]ncc3c2)CCCC1`
output: -15.2

input: For `CCNC(=O)Cc1n[nH]c(-c2cncc(Br)c2)n1` , write its cytotoxicity at 70.5 h.
output: 32

input: Answer with the recorded cytotoxicity at 70.5 h of `Cc1nnc(C2CCN(c3ncccn3)CC2)o1` only.
output: -15

input: Name the recorded cytotoxicity at 70.5 h of the item `CCOCCCNC(=O)c1ccccc1S(C)(=O)=O` in your answer.
output: -15.5
